- System: Klebsiella pneumoniae
- assay.protocol: Antibacterial activity against Klebsiella pneumonia by broth microdilution method
- Format: functional
Kindly apply the following: t if MIC is less than 100 µg/mL, f in every other case.

Asked: Record `O=C1C(=O)N(CCn2cncn2)c2ccccc21` : is its MIC strictly below 100 µg/mL?
Given back: f

Asked: Record `Cc1nccn1CCN1C(=O)C(=O)c2ccccc21` : is its MIC strictly below 100 µg/mL?
Given back: t

Asked: Record `O=C(/C=C1\C(=O)N(CCn2cncn2)c2ccccc21)c1ccccc1` : is its MIC strictly below 100 µg/mL?
Given back: t

Asked: Record `CC(=O)/C=C1\C(=O)N(CCn2cncn2)c2ccccc21` : is its MIC strictly below 100 µg/mL?
Given back: t

Asked: Record `O=C1C(=O)N(CCn2cnc([N+](=O)[O-])c2)c2ccccc21` : is its MIC strictly below 100 µg/mL?
Given back: t

Asked: Record O=C(CC1(O)C(=O)N(CCn2cncn2)c2ccccc21)c1ccc(Cl)cc1 (stereo unspecified) : is its MIC strictly below 100 µg/mL?
Given back: f

Asked: Record `O=C(/C=C1\C(=O)N(CCn2cncn2)c2ccccc21)c1ccc(Cl)cc1` : is its MIC strictly below 100 µg/mL?
Given back: f

Asked: Record `Cc1cc2ncn(CCN3C(=O)C(=O)c4ccccc43)c2cc1C` : is its MIC strictly below 100 µg/mL?
Given back: f

Asked: Record O=C(CC1(O)C(=O)N(CCn2cncn2)c2ccccc21)c1ccc(O)cc1 (stereo unspecified) : is its MIC strictly below 100 µg/mL?
Given back: f

Asked: Record `O=C(/C=C1\C(=O)N(CCn2cncn2)c2ccccc21)c1ccc(O)cc1` : is its MIC strictly below 100 µg/mL?
Given back: f

Asked: Record `CCn1cc(C(=O)O)c(=O)c2cc(F)c(N3CCNCC3)cc21` : is its MIC strictly below 100 µg/mL?
Given back: t
